# EXPERIMENT_NOTES: counter assay for TAg ATPase ADP read-out – biochemical, ADP-Hunter, fluorescence, counter-screen (AID 2501);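 further: purified T antigen ATPase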
# EXPERIMENTAL_CONTEXT: series mostly up to 100 µM
Screen size: about 2,200 compounds; about 1,200 (55%) were called active. Cut-off not given; nearly all actives show IC50 up to about 92 µM. The set was probably picked from earlier hits. Some of the results follow.
Respond using exactly one of the listed classes: active, inactive

Entry CCn1cnc2cc(NCc3ccc(N(C)C)cc3)ccc21 : call = ?
active

What would you report for CN(C)c1ccc(NC2=C([N+](=O)[O-])CS(=O)(=O)C2)cc1 ?
active

What would you report for Cc1ccc(N/C(C(Cl)=C(Cl)Cl)=C(/Cl)[N+](=O)[O-])c(C)c1 ?
inactive

What would you report for Cc1cccc(C(=O)NCC(=O)OCC(=O)c2ccc(Cl)s2)c1 ?
inactive

What would you report for O=C1NC(=S)SC1=C1CCCC1 ?
inactive

What would you report for CN1CN(C)c2cccc3cccc1c23 ?
active

What would you report for CN(C)c1ccc(CNc2ccc3c(c2)ncn3C)cc1 ?
active

What would you report for Cc1ccc(CNc2ccc3c(c2)ncn3C(C)C)cc1 ?
active

What would you report for c1ccc(CNc2ncnc3ccccc23)cc1 ?
active

What would you report for Cc1ccc(C)c(-n2c3nc(=O)[nH]c(=O)c-3cc3cc([N+](=O)[O-])ccc32)c1 ?
inactive

What would you report for COc1ccc2c(c1OC)C(=O)N1c3ccccc3N=C(c3ccc([N+](=O)[O-])cc3)CC21 (centres undefined) ?
inactive

What would you report for CCOc1cc(/C=N/Nc2nc(C)cc(=O)[nH]2)ccc1O ?
active

What would you report for COC(=O)CCC(=O)OC1(C)C(=O)C=C2C=C3CCCN3C=C2C1=O (centres undefined) ?
inactive

What would you report for O=C(Nc1cccc2c1CCCC2)c1ccccc1Cl ?
inactive

What would you report for Cc1c(C)n(Cc2ccccc2)c2ncnc(NN)c12 ?
inactive

What would you report for O=C(COc1cccnc1[N+](=O)[O-])c1ccc(Cl)s1 ?
active

What would you report for O=c1[nH]c2cc3c(cc2cc1C(c1nnnn1CC1CCCO1)N1CCCCCC1)OCCO3 (centres undefined) ?
inactive

What would you report for COc1ccc(CNC(=S)N/N=C/c2ccc(O)c(OC)c2)cc1 ?
active

What would you report for COCCn1nnnc1C(c1cc2cc(OC)c(OC)cc2[nH]c1=O)N1CCN(c2ccc(O)cc2)CC1 (centres undefined) ?
active

What would you report for Oc1cccc2cnccc12 ?
active

What would you report for CC(C)=CCc1c(O)c(CC=C(C)C)c2c(c1O)-c1cc(O)c(O)cc1CC2 ?
inactive

What would you report for O=S(=O)(Nc1cccc(-c2cn3ccsc3n2)c1)c1ccc(F)cc1 ?
inactive

What would you report for CCCCCCN=C(C)c1ccccc1O ?
inactive

What would you report for COCc1cc(CN2CCN(CCc3ccccc3)C(CCO)C2)ccc1OC (centres undefined) ?
inactive

----------
# EXPERIMENT_NOTES: counter assay for TAg ATPase ADP read-out – biochemical, ADP-Hunter, fluorescence, counter-screen (AID 2501);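 further: purified T antigen ATPase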
# EXPERIMENTAL_CONTEXT: series mostly up to 100 µM
The whole screen tested about 2,200 compounds, of which about 1,200 (55%) were called active. Cut-off not given; nearly all actives show IC50 up to about 92 µM. So high a share suggests a set chosen from earlier hits. This is one part of the list.
Respond using exactly one of the listed classes: active, inactive

Entry COc1ccc2c(c1OC)C(=O)N(c1ccc(O)cc1)C2 : call = ?
active

What would you report for O=C(c1ccc(-c2ccccc2Cl)s1)N1CCOCC1 ?
inactive

What would you report for N=C1/C(=C\c2ccc(SCc3ccco3)o2)C(=O)N=C2SC=NN12 ?
inactive

What would you report for Cc1ncc(CO)c(/C=N/NC(=O)c2cc(O)c(O)c(O)c2)c1O ?
inactive

What would you report for O=C(Nc1ccc(Nc2ccccc2)cc1)N1CCOCC1 ?
active

What would you report for CCOc1cc(S(=O)(=O)n2nc(C)cc2C)ccc1Br ?
inactive

What would you report for CCOC(=O)NNc1ccc2nonc2c1[N+](=O)[O-] ?
inactive

What would you report for COc1ccc(-c2c(C)n([O-])c3c([n+]2=O)CCCCC3)cc1OC ?
inactive

What would you report for CCNc1nc(NCC)nc(N/N=C/c2ccc(O)c(OC)c2)n1 ?
active

What would you report for COc1ccc2c(c1)-c1nc(/N=C/c3ccc(O)c(OC)c3)sc1CC2 ?
active

What would you report for Fc1ccccc1CSc1nnnn1-c1ccc2c(c1)OCO2 ?
inactive

What would you report for CC1(C)CC(=O)C=C(NCCc2ccccc2)C1 ?
inactive

What would you report for On1ccccc1=S ?
inactive

What would you report for Cc1cnc(C(=O)Nc2ccc(S(=O)(=O)NCC(C)C)cc2)cn1 ?
inactive

What would you report for CN(C)c1nc(NCc2ccccc2)nc(N/N=C/c2ccc(Cl)cc2Cl)n1 ?
inactive

What would you report for CCOc1cc(C(c2c(C)[nH][nH]c2=O)c2c(C)[nH][nH]c2=O)ccc1O ?
active

What would you report for CCN(CC)c1ccc(NC(=S)NC(=O)C2CCC2)cc1 ?
active

What would you report for O=C(NC(=S)Nc1ccc(O)cc1)c1ccccc1Cl ?
active

What would you report for C[C@@H]1NC(=O)[C@H](CCC(N)=O)NC(=O)c2cc([N+](=O)[O-])cc(I)c2NCC[C@@H](C(N)=O)NC1=O ?
inactive

What would you report for S=c1[nH]nc(NCCCN2CCOCC2)s1 ?
active

What would you report for S=c1[nH]nc(-c2cc(-c3ccco3)[nH]n2)n1-c1ccccc1Cl ?
active

What would you report for c1coc(-c2nnc3sc(Cc4cccs4)nn23)c1 ?
inactive

What would you report for O=C(O)/C=C/C(=O)Nc1ccc(Cl)cc1C(=O)c1ccccc1 ?
inactive

What would you report for CCOc1cc(C(c2c(C)[nH][nH]c2=O)c2c(C)[nH][nH]c2=O)ccc1OC(=O)c1cccc([N+](=O)[O-])c1 ?
active

What would you report for O=C1NN(c2ccccc2)C(=O)/C1=C\c1ccc(-c2cc([N+](=O)[O-])ccc2O)o1 ?
active

What would you report for COCC(C)NC(=O)c1cccc([N+](=O)[O-])c1 (stereo not given) ?
inactive

What would you report for Cc1cc(C)nc(NC2=NCC(=O)N2c2cc(Cl)cc(Cl)c2)n1 ?
inactive

What would you report for O=C(CCc1nnc(C2(c3ccc(Cl)cc3)CCC2)o1)N1CCCC(O)C1 (stereo not given) ?
inactive

What would you report for O=C(N/N=C/c1c[nH]c2ccccc12)c1ccc(O)c(O)c1 ?
active

What would you report for Cc1[nH][nH]c(=O)c1C(c1ccc(-c2cccc(Cl)c2)o1)c1c(C)[nH][nH]c1=O ?
inactive

What would you report for CN(C)c1nn(C(=O)Nc2ccc(Cl)cc2Cl)cc1-c1ccccc1 ?
active

What would you report for O=C1NN(c2ccccc2)C(=O)/C1=C/c1ccc(-c2cccc(C(=O)O)c2)o1 ?
active

What would you report for Oc1ccc(-c2csc(Nc3ccccn3)n2)cc1O ?
active

What would you report for CC1=NN(c2nc(-c3ccccc3)cs2)C(=O)C1 ?
active

What would you report for COc1ccc(N=Cc2c(O)cc(C)oc2=O)cc1 ?
active

What would you report for O=C1NN(c2ccccc2)C(=O)/C1=C/c1ccc(-c2ccc(C(=O)O)cc2)o1 ?
active

What would you report for Cc1ccc(Nc2nc(-c3ccc(O)c(O)c3)cs2)nc1 ?
active

What would you report for CCOC(=O)c1ccc(S(=O)(=O)Nc2nc3cc(S(=O)(=O)NC4=NCCCCC4)ccc3s2)cc1 ?
inactive

What would you report for O=C(NC1CCCCCC1)c1cccnc1Sc1ccc(Cl)cc1 ?
inactive

What would you report for O=C1C=C(Nc2ccc(O)cc2)CC(c2ccco2)C1 (stereo not given) ?
active

What would you report for COc1ccccc1-n1c(-c2cc(-c3ccco3)[nH]n2)n[nH]c1=S ?
inactive

What would you report for CC1=NN(c2cccc(C(=O)O)c2)C(=O)/C1=C\C=C\c1ccco1 ?
inactive

What would you report for CCCSc1nc(O)c(C(c2ccc(OC)c(O)c2)c2c(O)nc(SCCC)n(C)c2=O)c(=O)n1C ?
inactive

What would you report for Oc1ccc(-c2csc(Nc3ncccn3)n2)cc1O ?
active

What would you report for O=C(N/N=C(\c1ccccc1)c1cccnc1)c1cc(O)ccc1O ?
active

----------
# EXPERIMENT_NOTES: counter assay for TAg ATPase ADP read-out – biochemical, ADP-Hunter, fluorescence, counter-screen (AID 2501);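 further: purified T antigen ATPase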
# EXPERIMENTAL_CONTEXT: series mostly up to 100 µM
The whole screen tested about 2,200 compounds, of which about 1,200 (55%) were called active. Cut-off not given; nearly all actives show IC50 up to about 92 µM. So high a share suggests a set chosen from earlier hits. The list shows a part of the results.
Respond using exactly one of the listed classes: active, inactive

Entry Cc1cc(NS(=O)(=O)c2ccc(NC(=O)Nc3ccc4c(c3)OCO4)cc2)no1 : call = ?
inactive

What would you report for O=C(CCS(=O)(=O)c1ccc(Cl)cc1)Oc1ccc2c(c1)OCO2 ?
active

What would you report for O=C(COc1ccccc1[N+](=O)[O-])N/N=C/c1ccc(O)cc1 ?
active

What would you report for Cc1ccc(S(=O)(=O)Cc2cc(F)c([N+](=O)[O-])cc2[N+](=O)[O-])cc1 ?
inactive

What would you report for Oc1ccc2c(c1)C1CCCC1(N1CCOCC1)O2 (configuration not stated) ?
inactive

What would you report for O=c1c2cc(O)c(O)cc2oc2cc(O)c(C3OC(CO)C(O)C(O)C3O)c(O)c12 (configuration not stated) ?
active

What would you report for O=c1cc(-c2ccc(O)c(O)c2)oc2cc(O)c(C3OC(CO)C(O)C(O)C3O)c(O)c12 (configuration not stated) ?
active

What would you report for CN1CCN(c2nc(Nc3ccc(O)cc3)nc3ccccc23)CC1 ?
active

What would you report for N#C/C(=C\c1ccc(O)c(O)c1)C(=O)Nc1ccccc1 ?
active

What would you report for Oc1ccc(Nc2nc(N3CCCC3)c3ccccc3n2)cc1 ?
active

What would you report for Cc1ccc(-c2c3c([nH]c(=S)c2C#N)CCCC3)o1 ?
inactive

What would you report for CCOC(=O)c1c(NC(=O)/C=C/C(=O)O)sc(C)c1-c1ccc(Cl)cc1 ?
inactive

What would you report for CCc1ccc(OCc2nnc(SCC(=O)Nc3cccc(C(=O)N4CCOCC4)c3)o2)cc1 ?
inactive

What would you report for O=C(c1cccc(F)c1)N1CCC(N2CCOCC2)CC1 ?
inactive

What would you report for N#Cc1c(-c2ccco2)c2c([nH]c1=S)CCCC2 ?
active

What would you report for CC(=O)Nc1cccc(NC(=O)COc2ccc3c(c2)OCO3)c1 ?
inactive

What would you report for O=c1cc(-c2ccc(O)cc2)oc2cc(O)c(C3OC(CO)C(O)C(O)C3O)c(O)c12 (configuration not stated) ?
active

What would you report for COc1cc2c(cc1OC)C[N+](C)(C)CC2 ?
active

What would you report for N#Cc1c(-c2ccco2)cc(-c2ccccc2)[nH]c1=O ?
inactive

What would you report for Cc1ccc(-c2nnc(Nc3ccc(O)cc3)c3ccccc23)cc1S(=O)(=O)NCCO ?
active

What would you report for CCOC(=O)c1c(NC(C)=O)sc2c(O)c(Br)cc(Br)c12 ?
active

What would you report for O=C(c1ccc2ccccc2c1)N1CCN(c2ccc(O)cc2)CC1 ?
active
